assay: yeast display, Sf9 membrane polyspecificity reagent, FACS + sequencing; frameworks hold sequencing errors
measurementKind: polyreactivity (PSR sort gate)

Recorded results for 8 sequences are shown here.
INSERT INTO results (primarysequence, result) VALUES
  ('QVQLVESGGGLVQAGGSLRLSCAASGITFTGFAMGWYRQAPGKERELVAAITWSSGSTYYADSVKGRFTISRDNAKNTVYLQMNSLKPEDTAVYYCNAGYWYDGPDYIPEYDYWGQGTQVTVSS', 'low polyreactivity'),
  ('QVQLVESGGGLVQAGGSLRLSCAATGGIFDYYAMGWYRQAPGKERALVAAIRGGGSTNYADSVKGRFTISRDNAKNTVYLQMNSLKPEDTAVYYCAKDSPFTSVTVLAPIIYDSWGQGTQVTVSS', 'low polyreactivity'),
  ('QVQLVESGGGLVQAGGSLRLSCAASGNTFRWYVMGWYRQAPGKERELVAAITSSGSTTYYADSVKGRFSISRDNAKNTVYLQMNSLKPEDTAVYYCAARNYGPYDYWGQGTQVTVSS', 'low polyreactivity'),
  ('QVQRVESGGGLVQAGGSLLLSCAASGRIFYRSAMGWYRQAPGKESELVASISWSGGSTYYADSVKGRFTISRDNAKNTVYLQMNSLKPEDTAVYYCAARSYRYSYRYRAFDYWGQGTQVTVSS', 'high polyreactivity'),
  ('QVQLVESGGGLVQAGGSLRLSCAASGRIFSRNAMGWYRQAPGKERELVAAITWRGGNTYYAHSVKGRFTISRDNAKNTVYLQMNSLKPEDTAVYYCAADYLRWAGRYFSWDYDYWGQGTQVTVSS', 'high polyreactivity'),
  ('HVQLQESAGGLVQAGASLRLSCAPSGNISYSRNMGWYRQAPGKERELVAAIDRGAITYYADSVKGRFTISRDNEKNTVYLQIFSLKPEDTAVYYCAAVYHDRWDHRYWGQGTQVTVSS', 'high polyreactivity'),
  ('QVQLVESGGGLVQAGGSLRLSCAASGSIFGDYAMGWYRQAPGKERELVAAITSSGGITYYADSVKGRFTISRDNAKNTVYLQMNSLKPEDTAVYYCAAYGYGSNYRYTGYYYWGQGTQVTVSS', 'low polyreactivity'),
  ('QVQLVESGGGLVQAGGSLRLSCAASGFTFWQYAMGWYRQAPGKERELVAAITSSGTSTNYADSVKGRFTISGDNAKKTVYLQMNSLKPEETAVYYCAADLGYYDLYYWGQGTQVTVSS', 'low polyreactivity');

I have 6 sequences here; please give me polyreactivity (PSR sort gate) for each one.
1. QVQLVESGGGLVQAGGSLRLSCAASGITFYGYAMGWYRQAPGKERELVAVITSSGSSTYYADSVKGRFTISRDNAKNTVYLQMNSLTPEDTAVYYCNARPGRRSLRSRTYDYWGQGTQVTVSS
2. QVQLVESGGGLVQAGGSLRLSCAASGFIFTYYAMGWYRQAPGKERELVASITISGGSTYYADSVKGRFTISRDNAKNTVYLQMNSLKPEDTAVYYCNVVPWYYGYDYWGQGTQVTVSS
3. QVQLVESGGGLVQAGGSLRLSCAASGFTFVSNDMGWYRQEPGKERELVAAISQGGGSTYYADSVKGRFTISRDNAKNTVYLQINSLKPEDTAVYYCAAEDVYFGYDYWGQGTQVTVSS
4. QVQLVESGGGLDQAGGSLRLSCAASGLTFGGNAMGWYRQAPGKERELVAAISWSDDTTDYADSVKGRFTISRDNAKNTVYLQMNSLKPEDTAVYYCAARLPFEHVDYWGQGTQVTVSS
5. QVQLVESGGGLVQAGGSLRLSCAASGRNFDGYAMGWYRQAPGKERQLVAAISGGGNTKYADSVKGRFTISRDNAKNTVYLKMISLKPEDTAVYYCAARGYYYGYRFDSWGQGTQVTVSS
6. QVQLVESGGGLVHAGGSLRLSCAASGITFKWNDMGWYRQAPGKEREFVAAITGSTGSTFYADSVKGRFTISRDNAKNTVYLQMNSLKPEDTAVYYCAAGPWFYYWGQGTQVTVSS

Result:
1. high polyreactivity
2. high polyreactivity
3. low polyreactivity
4. low polyreactivity
5. high polyreactivity
6. low polyreactivity

Query: # lookup: polyreactivity (PSR sort gate) of QVQLVESGGGLVQAGGSLRLSCAASGRIFASYAMGWYRQAPGKERELVAAISWSGGSTNYADSVKGRFTISRDNAKNTVYLQMNRLKPEDTAVYYCAKKKRRGYGYDYWGQGTQVTVSS
Result: high polyreactivity
